# Test Target: USP8^CD (purified catalytic domain of USP8) (Homo sapiens)
# Construct: the purified catalytic domain of USP8 (USP8^CD, in-house purified); made in house; host or cells: E. coli BL21 Gold
# Sequence (P40818 777-1109 limits assumed): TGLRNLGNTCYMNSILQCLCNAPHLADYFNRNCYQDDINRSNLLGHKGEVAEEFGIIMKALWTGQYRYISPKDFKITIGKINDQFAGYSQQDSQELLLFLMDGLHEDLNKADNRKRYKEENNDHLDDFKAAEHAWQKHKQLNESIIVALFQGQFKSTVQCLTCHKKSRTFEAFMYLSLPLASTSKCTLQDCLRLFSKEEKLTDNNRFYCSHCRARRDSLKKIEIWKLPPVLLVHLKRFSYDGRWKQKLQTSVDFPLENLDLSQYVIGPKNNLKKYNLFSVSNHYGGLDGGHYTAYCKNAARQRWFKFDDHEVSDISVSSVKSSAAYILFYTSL
# Procedure Details: Inhibition of purified USP8^CD enzymatic activity (Ub-AMC or Ub-Rho substrate)
# Type: biochemical
# Condition Description: 25 μM compound; Table 1b
Readout: inhibition at 25 µM (%)

Please look up its inhibition at 25 µM: O=C1c2ccccc2C(=O)c2nc(CS(=O)(=O)c3cccc(C(F)(F)F)c3)c(CS(=O)(=O)c3cccc(C(F)(F)F)c3)nc21 [OVM17]
68

And then CCS(=O)(=O)Cc1nc2c(nc1CS(=O)(=O)CC)C(=O)c1ccccc1C2=O [VIN6075] , what is it?
104

And then COc1ccc(S(=O)(=O)Cc2nc3c(nc2CS(=O)(=O)c2ccc(OC)cc2)C(=O)c2ccccc2C3=O)cc1 [PCR7994] , what is it?
91
